Target: D(1A) dopamine receptor (Rattus norvegicus)
Sequence (P18901 whole entry): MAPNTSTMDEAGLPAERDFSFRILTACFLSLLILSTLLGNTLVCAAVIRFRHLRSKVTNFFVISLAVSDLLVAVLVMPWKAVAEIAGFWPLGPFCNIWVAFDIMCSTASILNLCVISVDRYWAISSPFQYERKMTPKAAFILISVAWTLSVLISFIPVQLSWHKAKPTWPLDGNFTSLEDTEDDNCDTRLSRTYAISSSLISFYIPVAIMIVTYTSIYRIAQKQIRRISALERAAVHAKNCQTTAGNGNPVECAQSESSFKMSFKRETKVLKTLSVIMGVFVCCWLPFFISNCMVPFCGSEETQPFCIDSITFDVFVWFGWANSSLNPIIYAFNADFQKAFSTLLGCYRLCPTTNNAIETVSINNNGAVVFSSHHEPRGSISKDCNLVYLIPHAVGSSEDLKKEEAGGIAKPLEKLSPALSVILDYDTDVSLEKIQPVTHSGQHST
Test: Displacement of [3H]-SCH 23390 from dopamine D1 receptor in rat striatal membranes after 1 hr by liquid scintillation counting analysis
Format: cell membranes, Membrane
Conditions: read-out: Ki
measured attribute: Ki (nM)

Worked examples, 6 compounds total:
Oc1ccc2c(c1)CC1c3cc4c(cc3CCN1C2)OCO4 (stereo unspecified); 33000
Oc1ccc2c(c1)CC1c3cc(O)c(O)cc3CCN1C2 (stereo unspecified); 2960
COc1cc2c(cc1OC)C1Cc3cccc(OC)c3CN1CC2 (stereo unspecified); 3930
Oc1cc2c(cc1O)C1Cc3cccc(O)c3CN1CC2 (stereo unspecified); 3780
COc1ccc2c(c1)CC1c3cc(O)c(O)cc3CCN1C2 (stereo unspecified); 1110
COc1ccc2c(c1)CC1c3cc(OC)c(OC)cc3CCN1C2 (stereo unspecified); 4310

a: COc1ccc2c(c1)CC1c3cc4c(cc3CCN1C2)OCO4 (stereo unspecified)
b: Oc1ccc2c(c1)CC1c3cc(O)c(Cl)cc3CCN1C2 (stereo unspecified)
Ask: Which entry has a larger number for Ki, a or b ? Write down the label of the entry you select.
Reply: a
(a: 2370 nM, b: 107 nM)
